# TARGET_OF_ASSAY: Maternal embryonic leucine zipper kinase (Homo sapiens)
# Sequence (Q14680 whole entry): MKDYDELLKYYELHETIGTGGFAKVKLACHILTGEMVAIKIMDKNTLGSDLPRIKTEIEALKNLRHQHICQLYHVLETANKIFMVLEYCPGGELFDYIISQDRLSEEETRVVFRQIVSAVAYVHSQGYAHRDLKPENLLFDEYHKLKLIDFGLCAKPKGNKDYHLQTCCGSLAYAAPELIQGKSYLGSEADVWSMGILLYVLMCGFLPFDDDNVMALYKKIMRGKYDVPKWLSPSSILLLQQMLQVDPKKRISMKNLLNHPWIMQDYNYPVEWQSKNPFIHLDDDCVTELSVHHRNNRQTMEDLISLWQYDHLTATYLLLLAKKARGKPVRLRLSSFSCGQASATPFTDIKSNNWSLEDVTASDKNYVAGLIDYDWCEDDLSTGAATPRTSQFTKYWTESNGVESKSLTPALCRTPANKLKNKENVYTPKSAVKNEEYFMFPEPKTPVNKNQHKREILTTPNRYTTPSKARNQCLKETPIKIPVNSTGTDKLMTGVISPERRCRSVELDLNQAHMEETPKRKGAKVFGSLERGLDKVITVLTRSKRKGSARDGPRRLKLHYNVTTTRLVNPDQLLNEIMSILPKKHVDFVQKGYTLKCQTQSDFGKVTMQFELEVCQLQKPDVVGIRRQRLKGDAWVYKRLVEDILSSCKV
# PROTOCOL_DETAILS: Kinase Assay: MELK activity was determined in the presence or absence of compounds using fluorescein isothiocyanate-labeled (FITC-labeled) histone H3 peptide as a substrate. The extent of FITC-labeled histone H3 peptide phosphorylation was measured by immobilized metal ion affinity-based fluorescence polarization (IMAP) technology (Sportsman J R, et al., Assay Drug Dev. Technol. 2: 205-14, 2004) using IMAP FP Progressive Binding System (Molecular Devices Corporation). Test compounds were dissolved in DMSO at 12.5 mM and then serially diluted as the DMSO concentration in the assays to be 1%. The serially diluted compounds, 0.8 ng/micro-L PBK (Carna Biosciences) and 100 nM FITC-labeled histone H3 peptide were reacted in a reaction buffer (20 mM HEPES, 0.01% Tween-20, 0.3 mM MgCl2, 2 mM dithiothreitol, 50 micro-M ATP, pH 7.4) at room temperature for 1 hour. The reaction was stopped by the addition of three fold assay volume of progressive binding solution. Following 0.5 hour incubation at room temperature.
pIC50: −log10 of the molar value.
Cut-off 8 on pIC50, inclusive. At or above means Y; below means N.

Quick check: does CN(C)C1CCN(c2ccc(Nc3c(S(C)(=O)=O)cnc4ccc(-c5cc(Cl)c(O)c(Cl)c5)cc34)cn2)C1 (configuration not stated) have pIC50 greater than or equal to 8?
Y

Quick check: does CN(C)C1CCN(C[C@H]2CC[C@H](Nc3c(C(=O)C4CC4)cnc4ccc(-c5cc(Cl)c(O)c(Cl)c5)cc34)CC2)C1 (some centres not stated) have pIC50 greater than or equal to 8?
Y

Quick check: does CN(C)CC1CCN(c2c(C(=O)C3CC3)cnc3ccc(-c4ccc(OC(F)F)cc4)cc23)CC1 have pIC50 greater than or equal to 8?
N

Quick check: does COc1cc(-c2ccc3ncc(C(=O)C4CC4)c(Nc4ccc(C5CCCN5C)cn4)c3c2)cc(Cl)c1O (configuration not stated) have pIC50 greater than or equal to 8?
N

Quick check: does CN(C)C[C@H]1CC[C@H](Nc2c(C(=O)C3CCCC3)cnc3ccc(-c4cc(Cl)c(O)c(Cl)c4)cc23)CC1 have pIC50 greater than or equal to 8?
Y

Quick check: does CS(=O)(=O)c1cnc2ccc(-c3cc(Cl)c(O)c(Cl)c3)cc2c1N[C@H]1CC[C@H](CN2CCCC2)CC1 have pIC50 greater than or equal to 8?
Y

Quick check: does CC(=O)c1cnc2ccc(-c3cc(Cl)c(O)c(Cl)c3)cc2c1N[C@H]1CC[C@H](CN2CCN(C)CC2)CC1 have pIC50 greater than or equal to 8?
Y

Quick check: does CCN(CC)CCO[C@H]1CC[C@H](Nc2c(C(C)=O)cnc3ccc(-c4cc(Cl)c(O)c(Cl)c4)cc23)CC1 have pIC50 greater than or equal to 8?
Y

Quick check: does O=C(c1cnc2ccc(-c3cc(Cl)c(O)c(Cl)c3)cc2c1N[C@H]1CC[C@H](CN2CCCC2)CC1)C1CC1 have pIC50 greater than or equal to 8?
Y

Quick check: does COc1cc(-c2ccc3ncc(C#N)c(N[C@H]4CC[C@H](N(C)C)CC4)c3c2)cc(Cl)c1O have pIC50 greater than or equal to 8?
Y

Quick check: does Cc1cc(O)c(Cl)cc1-c1ccc2ncc(C(=O)C3CC3)c(N3CCC(CN(C)C)CC3)c2c1 have pIC50 greater than or equal to 8?
N

Quick check: does N#Cc1ncc(-c2ccc3ncc(C(=O)C4CC4)c(Nc4ccc(CN)cc4)c3c2)cn1 have pIC50 greater than or equal to 8?
Y

Quick check: does CC(=O)c1cnc2ccc(-c3cnc(C#N)nc3)cc2c1Nc1ccc(CN(C)C)cc1 have pIC50 greater than or equal to 8?
Y

Quick check: does CN(C)CC1CCN(c2c(C(=O)C3CC3)cnc3ccc(-c4ccc5c(c4)CC(=O)N5)cc23)CC1 have pIC50 greater than or equal to 8?
N

Quick check: does O=C(c1cnc2ccc(-c3cc(Cl)c(O)c(Cl)c3)cc2c1Nc1ccc(CN2CCOCC2)cc1)C1CC1 have pIC50 greater than or equal to 8?
N
